- assayTarget: T1, human VPAC2 receptor (human, UniProt P41587 24-438)
- T1 sequence (looked up): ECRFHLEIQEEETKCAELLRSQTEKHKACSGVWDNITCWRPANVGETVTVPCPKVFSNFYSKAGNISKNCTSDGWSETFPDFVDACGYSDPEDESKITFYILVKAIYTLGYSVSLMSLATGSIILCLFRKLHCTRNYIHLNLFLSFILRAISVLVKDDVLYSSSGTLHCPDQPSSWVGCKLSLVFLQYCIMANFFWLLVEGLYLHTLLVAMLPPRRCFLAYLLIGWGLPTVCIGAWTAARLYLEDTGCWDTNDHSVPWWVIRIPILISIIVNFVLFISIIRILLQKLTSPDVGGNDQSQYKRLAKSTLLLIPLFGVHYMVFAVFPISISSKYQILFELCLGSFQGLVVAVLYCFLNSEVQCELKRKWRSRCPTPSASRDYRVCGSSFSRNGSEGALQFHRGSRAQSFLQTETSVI
- method: cell-based or functional assay
Where no end group is shown, it is not given here. [ ]: non-standard residue; d: D form. hArg = N=C(N)NCCCC[C@H](N)C(=O)O
Parameter EC50 cAMP, DiscoveRx: see the listing below.
Answer format: numeric, nM implied, no suffix.

Any idea what EC50 cAMP, DiscoveRx was measured for HSDATFTDNYTRLRKQVAAKKYLQSIKNKRYGGPSSGAPPPS [P62] ?
13.2

---
EC50 cAMP, DiscoveRx lookup needed for HSDAVFTDNYTRLRKQVAAKKYLQSIRNKRYGGPSSGAPPPS [P23] , thanks.
1.41

Queued: HSDAVFTDNYTRLRKQVAAKKYLQSIKN[hArg]RYGGPSSGAPPPS (ends and bridges not checked) [P24]
5.78

What about this binder? HSDAWFTDNYTRLRKQVAAKKYLQSIKNKRYGGPSSGAPPPS [P69]
6.39

Next: H[dS]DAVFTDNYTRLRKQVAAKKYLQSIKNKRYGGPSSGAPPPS [P48]
9.55

Could you do the same for HSDAVYTDNYTRLRKQVAAKKYLQSIKNKRYGGPSSGAPPPS [P68] , please?
20.3

Would you mind doing HSDYVFTDNYTRLRKQVAAKKYLQSIKNKRYGGPSSGAPPPS [P51] as well?
91.1

Can you check HSDIVFTDNYTRLRKQVAAKKYLQSIKNKRYGGPSSGAPPPS (not fully specified) [P50] next?
19.2

Another binder to check: HSDAVFTDNYTRLRKQVAAKKYLQSIKNKRYC [P37]
1.68

Next record, please: HSDAVFTDNYTRLRKQVAAKKYLQSIKNKKGGPSSGAPPPS [P9]
2.41
